Parameter: koff. Scope: all listed entries.
- experimental-system: T1, human ADAMTS5 (human, UniProt Q9UNA0 262-622, limits assumed)
- T1 construct: Octet and ELISA used 'recombinant human ADAMTS5'; also called recombinant human ADAMTS5; ADAMTS5 (R&D Systems 2198-AD)
- T1 sequence: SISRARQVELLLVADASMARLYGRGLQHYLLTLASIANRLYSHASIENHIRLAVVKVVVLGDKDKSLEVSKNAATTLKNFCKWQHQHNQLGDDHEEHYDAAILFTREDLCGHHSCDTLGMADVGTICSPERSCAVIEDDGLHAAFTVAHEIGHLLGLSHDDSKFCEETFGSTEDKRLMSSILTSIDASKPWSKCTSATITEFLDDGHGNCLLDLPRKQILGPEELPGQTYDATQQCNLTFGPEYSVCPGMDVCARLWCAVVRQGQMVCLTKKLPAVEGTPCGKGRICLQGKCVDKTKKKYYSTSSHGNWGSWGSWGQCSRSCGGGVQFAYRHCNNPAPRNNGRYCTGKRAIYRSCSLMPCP
- assay-details: Biacore, mAb from culture supernatant captured on anti-human IgG, ADAMTS5 (R&D 2198-AD) at 64 nM, 1:1 fit
Use s⁻¹ as the unit, but write only the number.

Prompt: Look up koff: BPC1623 (antibody, human IgG1, kappa, V domains shown, Chimeric: murine variable domains on human gamma 1 and kappa constant regions; also called 12F4 Chimera; Chimeric 12F4.1H7) VH: EVKLEESGGGLVQPGGSMKLSCTASGFTFSDAWMDWVRQSPEKGLEWVAEIRHKANDHAIFYDESVKGRFTISRDDSKNIVYLQMNSLRPEDTGIYYCTSPFAYWGQGTLVTVSS VL: DIVMTQSQKFMSVTVGDRVSITCKASQSVGTTIVWYQQKPGQSPKLLIYSASNRHTGVPDRFTGSGSGTDFILTINNVQSEDLADYFCQQYTSYPFTFGSGTKLEIKR
Completion: 4.82e-05

Prompt: Value lookup for koff; key = BPC1622 (antibody, human IgG1, kappa, V domains shown, Chimeric: murine variable domains on human gamma 1 and kappa constant regions; also called 7B4 Chimera; Chimeric 7B4.1E11) VH: EVKLEESGGGLVQPGGSMKLSCAASGFTSSDAWMDWVRQSPEKGLEWVAEIRNKANNHARHYAESVKGRFTISRDDSKSSVYLQMNSLRAEDSGIYYCTRTYYYGSSYGYCDVWGTGTLVTVSS VL: DIQMTQSPASLSASVGETVTITCRTSENIYSYLAWYQQKQGKSPQLLVYNAKTLAEGVPSRFSGSGSGTQFSLKINSLQPEDFGSYSCQHHYGTPWTFGGGTKLEIKR
Completion: 0.0013

Prompt: Which koff value is on record for BPC1646 (antibody, human IgG1, kappa, V domains shown, Humanized, human gamma 1 / kappa; also called 7B4 H5L1) VH: EVQLVESGGGLVQPGGSLRLSCAASGFTSSDAWMDWVRQAPGKGLEWVAEIRNKANNHARHYAESVKGRFTISRDNAKNSVYLQMNSLRAEDTAVYYCTRTYYYGSSYGYCDVWGQGTLVTVSS VL: DIQMTQSPSSLSASVGDRVTITCRTSENIYSYLAWYQQKPGKAPKLLVYNAKTLAEGVPSRFSGSGSGTDFTLTISSLQPEDFATYYCQHHYGTPWTFGQGTKLEIKR ?
Completion: 0.00184
